In this section, each of the molecules is paired with its reported pKb.
- tgt: D(2) dopamine receptor (Homo sapiens) (UniProt P14416)
- Sequence (P14416 whole entry): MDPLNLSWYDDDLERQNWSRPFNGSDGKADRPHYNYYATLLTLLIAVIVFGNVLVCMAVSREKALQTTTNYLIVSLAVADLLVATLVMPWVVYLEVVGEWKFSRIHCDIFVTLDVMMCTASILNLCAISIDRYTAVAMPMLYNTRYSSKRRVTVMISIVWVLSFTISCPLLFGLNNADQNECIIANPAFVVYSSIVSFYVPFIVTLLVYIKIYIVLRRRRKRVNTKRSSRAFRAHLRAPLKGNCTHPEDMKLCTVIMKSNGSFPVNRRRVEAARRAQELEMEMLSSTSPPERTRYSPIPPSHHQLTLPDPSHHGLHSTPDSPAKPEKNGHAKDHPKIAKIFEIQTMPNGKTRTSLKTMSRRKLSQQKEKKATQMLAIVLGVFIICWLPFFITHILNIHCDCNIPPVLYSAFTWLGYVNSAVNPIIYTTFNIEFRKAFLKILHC
- assayMethodText: Negative allosteric modulator activity at wild type human dopamine D2L receptor expressed in FlpIn CHO […] assessed as ERK1/2 phosphorylation measured as equilibrium dissociation constant after 30 mins
- Format: cell-based
Answer with a number only.

Guide cases for pKb, answers given:
O=C(N[C@H]1CC[C@H](CCN2CCc3ccc(Br)cc3C2)CC1)c1cc2ccccc2[nH]1 : 6.86
O=C(N[C@H]1CC[C@H](CCN2CCc3sccc3C2)CC1)c1cc2ccccc2[nH]1 : 6.47
O=C(N[C@H]1CC[C@H](CCN2CCCc3ccccc3C2)CC1)c1cc2ccccc2[nH]1 : 5.59
N#Cc1ccc2c(c1)CN(CCCCCNC(=O)c1cc3ccccc3[nH]1)CC2 : 6.88
Cn1c(C(=O)N[C@H]2CC[C@H](CCN3CCc4ccc(C#N)cc4C3)CC2)cc2ccccc21 : 7.14
N#Cc1ccc2c(c1)CN(CC[C@H]1CC[C@H](NC(=O)c3nc4ccccc4[nH]3)CC1)CC2 : 6.76
N#Cc1ccc2c(c1)CN(CC[C@H]1CC[C@H](NC(=O)c3ccc[nH]3)CC1)CC2 : 8.48
CN(C(=O)c1cc2ccccc2[nH]1)[C@H]1CC[C@H](CCN2CCc3ccc(C#N)cc3C2)CC1 : 7.04
N#Cc1ccc2c(c1)CN(CCCCCCNC(=O)c1cc3ccccc3[nH]1)CC2 : 7.52
N#Cc1ccc2c(c1)CN(CCCCNC(=O)c1cc3ccccc3[nH]1)CC2 : 7.09

Exercise: # lookup: pKb of N#Cc1ccc2c(c1)CN(CC[C@H]1CC[C@H](NC(=O)C3=Cc4ccccc4C3)CC1)CC2
Solution: 7.64

Exercise: # lookup: pKb of O=C(N[C@H]1CC[C@H](CCN2CCc3ccc(C(F)(F)F)cc3C2)CC1)c1cc2ccccc2[nH]1
Solution: 6.05

====

In this section, each of the compounds is paired with its reported pKb.
- tgt: D(2) dopamine receptor (Homo sapiens) (UniProt P14416)
- assayMethodText: Negative allosteric modulator activity at wild type human dopamine D2L receptor expressed in FlpIn CHO […] assessed as ERK1/2 phosphorylation measured as equilibrium dissociation constant after 30 mins
- Format: cell-based

Exercise: # lookup: pKb of N#Cc1ccc2c(c1)CN(CCCNC(=O)c1cc3ccccc3[nH]1)CC2
Solution: 6.86

Exercise: # lookup: pKb of O=C(N[C@H]1CC[C@H](CCN2CCc3ccccc3C2)CC1)c1cc2ccccc2[nH]1
Solution: 7.06

Exercise: # lookup: pKb of O=C(N[C@H]1CC[C@H](CCN2CCc3ccc(F)cc3C2)CC1)c1cc2ccccc2[nH]1
Solution: 5.98

Exercise: # lookup: pKb of N#Cc1ccc2c(c1)CN(CC[C@H]1CC[C@H](NC(=O)[C@@H]3CCCN3)CC1)CC2
Solution: 7.56

Exercise: # lookup: pKb of N#Cc1ccc2c(c1)CN(CC[C@H]1CC[C@H](NC(=O)c3cc4cccnc4[nH]3)CC1)CC2
Solution: 7.63
